experimentalSystem: T1, CCR5_S02_1F5 I-OnuI variant (artificial (I-OnuI derived))
T1 chain: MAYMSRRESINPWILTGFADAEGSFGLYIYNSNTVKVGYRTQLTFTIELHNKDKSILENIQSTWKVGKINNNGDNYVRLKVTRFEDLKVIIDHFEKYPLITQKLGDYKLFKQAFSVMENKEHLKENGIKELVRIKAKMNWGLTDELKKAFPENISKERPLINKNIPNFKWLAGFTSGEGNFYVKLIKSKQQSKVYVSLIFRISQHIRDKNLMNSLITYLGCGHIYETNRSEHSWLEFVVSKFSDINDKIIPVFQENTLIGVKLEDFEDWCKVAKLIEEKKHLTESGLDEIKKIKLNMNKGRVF
protocol: flow; yeast surface display titration; unit as printed (uM)
settings: label: Alexa Fluor 647 / biotin in cleavage assay
measuredQuantity: Kd

Q: Endpoint output: Kd of CCR5_S02 target (dsDNA) DNA 1: ATGAAGAAGATTCCAGAGAAGA DNA 2: TCTTCTCTGGAATCTTCTTCAT . Value?
A: ~35 µM
